# Test system: HeLa Kyoto
# ASSAY_INFO: thermal stability score vs G1/S (z-score of summed log2 fold changes over temperatures); higher = more thermally stable than in G1/S
# DETAILS: cell cycle stage: early G1 (4.5 h after nocodazole release)
Measured thermal stability score of individual entries

>>> result_value("MAAAGWRDGSGQEKYRLVVVGGGGVGKSALTIQFIQSYFVTDYDPTIEDSYTKQCVIDDRAARLDILDTAGQEEFGAMREQYMRTGEGFLLVFSVTDRGSFEEIYKFQRQILRVKDRDEFPMILIGNKADLDHQRQVTQEEGQQLARQLKVTYMEASAKIRMNVDQAFHELVRVIRKFQEQECPPSPEPTRKEKDKKGCHCVIF [RRAS2]")
1.24

**Query** Which value of thermal stability score has been reported for MSVGFIGAGQLAFALAKGFTAAGVLAAHKIMASSPDMDLATVSALRKMGVKLTPHNKETVQHSDVLFLAVKPHIIPFILDEIGADIEDRHIVVSCAAGVTISSIEKKLSAFRPAPRVIRCMTNTPVVVREGATVYATGTHAQVEDGRLMEQLLSSVGFCTEVEEDLIDAVTGLSGSGPAYAFTALDALADGGVKMGLPRRLAVRLGAQALLGAAKMLLHSEQHPGQLKDNVSSPGGATIHALHVLESGGFRSLLINAVEASCIRTRELQSMADQEQVSPAAIKKTILDKVKLDSPAGTALSPSGHTKLLPRSLAPAGKD [PYCR1] in the records?
**Result** 0.0884

**Query** Consider next the sequence MLPRRLLAAWLAGTRGGGLLALLANQCRFVTGLRVRRAQQIAQLYGRLYSESSRRVLLGRLWRRLHGRPGHASALMAALAGVFVWDEERIQEEELQRSINEMKRLEEMSNMFQSSGVQHHPPEPKAQTEGNEDSEGKEQRWEMVMDKKHFKLWRRPITGTHLYQYRVFGTYTDVTPRQFFNVQLDTEYRKKWDALVIKLEVIERDVVSGSEVLHWVTHFPYPMYSRDYVYVRRYSVDQENNMMVLVSRAVEHPSVPESPEFVRVRSYESQMVIRPHKSFDENGFDYLLTYSDNPQTVFPRYCVSWMVSSGMPDFLEKLHMATLKAKNMEIKVKDYISAKPLEMSSEAKATSQSSERKNEGSCGPARIEYA [STARD7] in the same way.
**Result** -1.31

**Query** Field entry: MSDDDSRASTSSSSSSSSNQQTEKETNTPKKKESKVSMSKNSKLLSTSAKRIQKELADITLDPPPNCSAGPKGDNIYEWRSTILGPPGSVYEGGVFFLDITFTPEYPFKPPKVTFRTRIYHCNINSQGVICLDILKDNWSPALTISKVLLSICSLLTDCNPADPLVGSIATQYMTNRAEHDRMARQWTKRYAT [UBE2E1]
**Result** 1.73

**Query** Moving on to the next sequence: MLGIWTLLPLVLTSVARLSSKSVNAQVTDINSKGLELRKTVTTVETQNLEGLHHDGQFCHKPCPPGERKARDCTVNGDEPDCVPCQEGKEYTDKAHFSSKCRRCRLCDEGHGLEVEINCTRTQNTKCRCKPNFFCNSTVCEHCDPCTKCEHGIIKECTLTSNTKCKEEGSRSNLGWLCLLLLPIPLIVWVKRKEVQKTCRKHRKENQGSHESPTLNPETVAINLSDVDLSKYITTIAGVMTLSQVKGFVRKNGVNEAKIDEIKNDNVQDTAEQKVQLLRNWHQLHGKKEAYDTLIKDLKKANLCTLAEKIQTIILKDITSDSENSNFRNEIQSLV [FAS]
**Result** -0.244

====

solubility in G1/S (log2) for assorted sequences
# Test system: HeLa Kyoto
# ASSAY_INFO: solubility in G1/S (NP-40 vs SDS abundance) (log2 ratio); higher = more soluble
# DETAILS: cell cycle stage: G1/S
Number only, please.

These recorded examples may help you get a feel for the data.
>>> result_value("MNPNCARCGKIVYPTEKVNCLDKFWHKACFHCETCKMTLNMKNYKGYEKKPYCNAHYPKQSFTMVADTPENLRLKQQSELQSQVRYKEEFEKNKGKGFSVVADTPELQRIKKTQDQISNIKYHEEFEKSRMGPSGGEGMEPERRDSQDGSSYRRPLEQQQPHHIPTSAPVYQQPQQQPVAQSYGGYKEPAAPVSIQRSAPGGGGKRYRAVYDYSAADEDEVSFQDGDTIVNVQQIDDGWMYGTVERTGDTGMLPANYVEAI [LASP1]")
0.0591
>>> result_value("MALKQEMAKSLLKTASLSGRTKLLHQTGLSLYSTSHGFYEEEVKKTLQQFPGGSIDLQKEDNGIGILTLNNPSRMNAFSGVMMLQLLEKVIELENWTEGKGLIVRGAKNTFSSGSDLNAVKSLGTPEDGMAVCMFMQNTLTRFMRLPLISVALVQGWALGGGAEFTTACDFRLMTPESKIRFVHKEMGIIPSWGGTTRLVEIIGSRQALKVLSGALKLDSKNALNIGMVEEVLQSSDETKSLEEAQEWLKQFIQGPPEVIRALKKSVCSGRELYLEEALQNERDLLGTVWGGPANLEAIAKKGKFNK [ECHDC1]")
0.284

**Query** Query the reported solubility in G1/S (log2) for HeLa Kyoto; item: MAQASLLACEGLAGVSLVPTAASKKMMLSQIASKQAENGERAGSPDVLRCSSQGHRKDSDKSRSRKDDDSLSEASHSKKTVKKVVVVEQNGSFQVKIPKNFVCEHCFGAFRSSYHLKRHILIHTGEKPFECDICDMRFIQKYHLERHKRVHSGEKPYQCERCHQCFSRTDRLLRHKRMCQGCQSKTSDGQFSL [ZNF740]
**Result** -0.111

====

# Test system: HeLa Kyoto
# ASSAY_INFO: solubility in G1/S (NP-40 vs SDS abundance) (log2 ratio); higher = more soluble
# DETAILS: cell cycle stage: G1/S
Response key: True means solubility in G1/S (log2) >= 0.2; False means solubility in G1/S (log2) < 0.2.

Example entries and their recorded answers appear below.
>>> discrete_label("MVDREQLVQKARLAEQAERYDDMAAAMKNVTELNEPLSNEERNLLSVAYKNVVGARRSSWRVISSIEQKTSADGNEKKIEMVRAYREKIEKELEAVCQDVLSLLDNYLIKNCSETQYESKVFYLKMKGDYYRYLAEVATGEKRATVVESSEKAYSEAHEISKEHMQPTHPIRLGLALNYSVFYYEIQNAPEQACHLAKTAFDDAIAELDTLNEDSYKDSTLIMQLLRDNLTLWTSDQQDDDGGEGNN [YWHAG]")
"True"
>>> discrete_label("MAAGCCGVKKQKLSSSPPSGSGGGGGASSSSHCSGESQCRAGELGLGGAGTRLNGLGGLTGGGSGSGCTLSPPQGCGGGGGGIALSPPPSCGVGTLLSTPAAATSSSPSSSSAASSSSPGSRKMVVSAEMCCFCFDVLYCHLYGYQQPRTPRFTNEPYPLFVTWKIGRDKRLRGCIGTFSAMNLHSGLREYTLTSALKDSRFPPMTRDELPRLFCSVSLLTNFEDVCDYLDWEVGVHGIRIEFINEKGSKRTATYLPEVAKEQGWDHIQTIDSLLRKGGYKAPITNEFRKTIKLTRYRSEKMTLSYAEYLAHRQHHHFQNGIGHPLPPYNHYS [AMMECR1]")
"True"
>>> discrete_label("MGHPPLLPLLLLLHTCVPASWGLRCMQCKTNGDCRVEECALGQDLCRTTIVRLWEEGEELELVEKSCTHSEKTNRTLSYRTGLKITSLTEVVCGLDLCNQGNSGRAVTYSRSRYLECISCGSSDMSCERGRHQSLQCRSPEEQCLDVVTHWIQEGEEGRPKDDRHLRGCGYLPGCPGSNGFHNNDTFHFLKCCNTTKCNEGPILELENLPQNGRQCYSCKGNSTHGCSSEETFLIDCRGPMNQCLVATGTHEPKNQSYMVRGCATASMCQHAHLGDAFSMNHIDVSCCTKSGCNHPDLDVQYRSGAAPQPGPAHLSLTITLLMTARLWGGTLLWT [PLAUR]")
"False"
>>> discrete_label("MACAEFSFHVPSLEELAGVMQKGLKDNFADVQVSVVDCPDLTKEPFTFPVKGICGKTRIAEVGGVPYLLPLVNQKKVYDLNKIAKEIKLPGAFILGAGAGPFQTLGFNSEFMPVIQTESEHKPPVNGSYFAHVNPADGGCLLEKYSEKCHDFQCALLANLFASEGQPGKVIEVKAKRRTGPLNFVTCMRETLEKHYGNKPIGMGGTFIIQKGKVKSHIMPAEFSSCPLNSDEEVNKWLHFYEMKAPLVCLPVFVSRDPGFDLRLEHTHFFSRHGEGGHYHYDTTPDIVEYLGYFLPAEFLYRIDQPKETHSIGRD [C11ORF54]")
"True"
>>> discrete_label("MCAARLAAAAAAAQSVYAFSARPLAGGEPVSLGSLRGKVLLIENVASLUGTTVRDYTQMNELQRRLGPRGLVVLGFPCNQFGHQENAKNEEILNSLKYVRPGGGFEPNFMLFEKCEVNGAGAHPLFAFLREALPAPSDDATALMTDPKLITWSPVCRNDVAWNFEKFLVGPDGVPLRRYSRRFQTIDIEPDIEALLSQGPSCA [GPX1]")
"True"

**Query** Item MIIYRDLISHDEMFSDIYKIREIADGLCLEVEGKMVSRTEGNIDDSLIGGNASAEGPEGEGTESTVITGVDIVMNHHLQETSFTKEAYKKYIKDYMKSIKGKLEEQRPERVKPFMTGAAEQIKHILANFKNYQFFIGENMNPDGMVALLDYREDGVTPYMIFFKDGLEMEKC [TPT1] with solubility in G1/S (log2) of 0.2 or above?
**Result** True

**Query** Same for MVLLKEYRVILPVSVDEYQVGQLYSVAEASKNETGGGEGVEVLVNEPYEKDGEKGQYTHKIYHLQSKVPTFVRMLAPEGALNIHEKAWNAYPYCRTVITNEYMKEDFLIKIETWHKPDLGTQENVHKLEPEAWKHVEAVYIDIADRSQVLSKDYKAEEDPAKFKSIKTGRGPLGPNWKQELVNQKDCPYMCAYKLVTVKFKWWGLQNKVENFIHKQERRLFTNFHRQLFCWLDKWVDLTMDDIRRMEEETKRQLDEMRQKDPVKGMTADD [PITPNA]
**Result** False

**Query** # iterate: MAPGVARGPTPYWRLRLGGAALLLLLIPVAAAQEPPGAACSQNTNKTCEECLKNVSCLWCNTNKACLDYPVTSVLPPASLCKLSSARWGVCWVNFEALIITMSVVGGTLLLGIAICCCCCCRRKRSRKPDRSEEKAMREREERRIRQEERRAEMKTRHDEIRKKYGLFKEENPYARFENN [PTTG1IP]
**Result** False

**Query** Input MTSFRLALIQLQISSIKSDNVTRACSFIREAATQGAKIVSLPECFNSPYGAKYFPEYAEKIPGESTQKLSEVAKECSIYLIGGSIPEEDAGKLYNTCAVFGPDGTLLAKYRKIHLFDIDVPGKITFQESKTLSPGDSFSTFDTPYCRVGLGICYDMRFAELAQIYAQRGCQLLVYPGAFNLTTGPAHWELLQRSRAVDNQVYVATASPARDDKASYVAWGHSTVVNPWGEVLAKAGTEEAIVYSDIDLKKLAEIRQQIPVFRQKRSDLYAVEMKKP [NIT2]
**Result** False

**Query** Input MAKKTYDLLFKLLLIGDSGVGKTCVLFRFSDDAFNTTFISTIGIDFKIKTVELQGKKIKLQIWDTAGQERFHTITTSYYRGAMGIMLVYDITNGKSFENISKWLRNIDEHANEDVERMLLGNKCDMDDKRVVPKGKGEQIAREHGIRFFETSAKANINIEKAFLTLAEDILRKTPVKEPNSENVDISSGGGVTGWKSKCC [RAB10]
**Result** False

**Query** And the next one, MAANSSGQGFQNKNRVAILAELDKEKRKLLMQNQSSTNHPGASIALSRPSLNKDFRDHAEQQHIAAQQKAALQHAHAHSSGYFITQDSAFGNLILPVLPRLDPE [INIP] ?
**Result** False
